Target: T1, human CD73 (human, UniProt P21589 27-547, limits assumed)
T1 construct: also called control antigen
T1 sequence (looked up): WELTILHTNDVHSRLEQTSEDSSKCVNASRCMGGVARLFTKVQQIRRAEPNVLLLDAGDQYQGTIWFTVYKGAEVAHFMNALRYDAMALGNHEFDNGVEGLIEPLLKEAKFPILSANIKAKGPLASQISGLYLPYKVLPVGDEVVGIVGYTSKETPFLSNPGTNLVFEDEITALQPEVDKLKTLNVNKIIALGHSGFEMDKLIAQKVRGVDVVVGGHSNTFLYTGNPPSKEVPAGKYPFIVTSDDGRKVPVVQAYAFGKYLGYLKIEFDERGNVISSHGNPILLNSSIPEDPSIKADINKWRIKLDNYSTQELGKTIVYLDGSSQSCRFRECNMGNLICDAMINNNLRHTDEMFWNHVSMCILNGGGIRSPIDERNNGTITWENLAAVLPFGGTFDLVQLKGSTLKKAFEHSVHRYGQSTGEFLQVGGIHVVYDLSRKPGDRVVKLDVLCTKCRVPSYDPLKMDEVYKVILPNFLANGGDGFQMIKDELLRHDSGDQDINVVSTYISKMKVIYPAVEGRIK
Test: ELISA on control antigen human CD73, B cell culture supernatant, 2nd screening
measured_endpoint: Optical Density (Anti-CD73 reactivity, 2nd screening) (OD)
Answers are plain numbers, in OD.

(Q) Please give the measured Optical Density (Anti-CD73 reactivity, 2nd screening) for this binder: 237N18 (rabbit anti-MSLN mAb) (antibody, V domains shown) VH: QSLEESGGRLVAPGTPLTLTCTVSGFSLSSYHMSWVRQAPGEGLEWIGGITAMSRTYYASWAKGRFTISKTSTTVHLKITSPTTEDTATYFCAREPGFVSNIWGPGTLVTVSL VL: AVVLTQTASPVSGVVGGTVTIKCQASQNIYSNLAWYQQKPGQRPKLLMYDASTLASGVPSRFKGSGSGTQFTLTISDLECADAATYYCQSISSVDNNVFGGGTEVVVK
(A) 0.0918
